biological target: human orexin-2 receptor (Homo sapiens (Human)); assay: hOX2R FLIPR Ca2+ flux assay; conditions: CHO cells expressing human orexin-2 receptor; agonist 70 pM Ala-6,12 orexin-A
Sequence (O43614 whole entry): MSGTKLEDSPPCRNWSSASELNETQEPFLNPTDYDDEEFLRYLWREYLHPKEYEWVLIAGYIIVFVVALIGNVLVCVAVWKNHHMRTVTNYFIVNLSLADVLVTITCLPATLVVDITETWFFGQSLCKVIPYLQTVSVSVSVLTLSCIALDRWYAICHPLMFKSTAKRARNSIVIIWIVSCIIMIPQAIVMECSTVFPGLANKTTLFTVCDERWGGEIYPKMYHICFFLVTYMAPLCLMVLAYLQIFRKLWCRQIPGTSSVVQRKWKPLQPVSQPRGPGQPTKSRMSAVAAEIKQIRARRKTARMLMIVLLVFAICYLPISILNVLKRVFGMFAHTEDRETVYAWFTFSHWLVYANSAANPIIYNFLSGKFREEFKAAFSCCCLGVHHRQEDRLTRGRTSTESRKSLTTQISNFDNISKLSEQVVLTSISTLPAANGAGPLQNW
IC50 strictly less than 100 nM = true. Otherwise false.

# MOLECULE, ANSWER LABEL
data = [
    ("Cc1oc(C[C@H]2CCCCN2C(=O)c2cccnc2-c2ccccc2)nc1C(C)(C)O [Example 14]", "true"),
    ("Cc1oc(C[C@H]2CCCCN2C(=O)c2ccccc2OC(F)(F)F)nc1C(C)(C)O [Example 9]", "false"),
    ("Cc1oc(C[C@H]2CCCCN2C(=O)c2nccnc2N2CCCC2)nc1C(C)(C)O [Example 23]", "false"),
    ("CCOc1ncccc1C(=O)N1CCCC[C@@H]1Cc1nc(C(C)(C)O)c(C)o1 [Example 2]", "true"),
    ("Cc1oc(C[C@H]2CCCCN2C(=O)c2ccc(F)cc2-n2nccn2)nc1C(C)(C)O [Example 4]", "true"),
    ("Cc1oc(C[C@H]2CCCCN2C(=O)c2ccccc2CC(F)(F)F)nc1C(C)(C)O [Example 18]", "false"),
    ("Cc1oc(C[C@H]2CCCCN2C(=O)c2ncccc2-c2ccccc2)nc1C(C)(C)O [Example 25]", "false"),
    ("Cc1oc(C[C@H]2CCCCN2C(=O)c2ccccc2-n2cccn2)nc1C(C)(C)O [Example 10]", "true"),
    ("Cc1ccc(-n2nccn2)c(C(=O)N2CCCC[C@@H]2Cc2nc(C(C)(C)O)c(C)o2)c1 [Example 30]", "true"),
    ("Cc1oc(C[C@H]2CCCCN2C(=O)c2nccnc2-n2cccn2)nc1C(C)(C)O [Example 26]", "false"),
    ("CCCc1ccccc1C(=O)N1CCCC[C@@H]1Cc1nc(C(C)(C)O)c(C)o1 [Example 29]", "false"),
    ("Cc1oc(C[C@H]2CCCCN2C(=O)c2nccnc2-c2ccccn2)nc1C(C)(C)O [Example 22]", "false"),
    ("Cc1oc(C[C@H]2CCCCN2C(=O)c2ccccc2C2CC2(F)F)nc1C(C)(C)O (some centres unmarked) [Example 27]", "true"),
    ("Cc1oc(C[C@H]2CCCCN2C(=O)c2ccccc2OCC(F)F)nc1C(C)(C)O [Example 20]", "false"),
]

====

target: hOX1R (Homo sapiens, UniProt O43613); assay: hOX1R FLIPR Ca2+ flux assay; assay type: cell-based; details: CHO cells expressing orexin-1 receptor; agonist 70 pM Ala-6,12 orexin-A; read-out: hOX1R FLIPR IC50

# SMI, VALUE QUALIFIER, IC50, nM
measured = [
    ("Cc1oc(C[C@H]2CCCCN2C(=O)c2cccnc2-c2ccccc2)nc1C(C)(C)O", "=", 80),
    ("Cc1oc(C[C@H]2CCCCN2C(=O)c2ccccc2-n2nccn2)nc1C(C)(C)O", "=", 18),
    ("Cc1oc(C[C@H]2CCCCN2C(=O)c2ncccc2-n2nccn2)nc1C(C)(C)O", "=", 1850),
    ("Cc1oc(C[C@H]2CCCCN2C(=O)c2nccnc2-n2cccn2)nc1C(C)(C)O", "=", 1410),
    ("Cc1oc(C[C@H]2CCCCN2C(=O)c2ccccc2-c2ncccn2)nc1C(C)(C)O", "=", 76),
    ("Cc1oc(C[C@H]2CCCCN2C(=O)c2ccccc2OC(F)(F)F)nc1C(C)(C)O", "=", 348),
    ("Cc1oc(C[C@H]2CCCCN2C(=O)c2ccccc2CC(F)(F)F)nc1C(C)(C)O", "=", 1690),
    ("Cc1oc(C[C@H]2CCCCN2C(=O)c2ccccc2CC(F)F)nc1C(C)(C)O", "=", 2180),
    ("Cc1oc(C[C@H]2CCCCN2C(=O)c2nccnc2-c2ccccn2)nc1C(C)(C)O", "=", 2930),
    ("Cc1oc(C[C@H]2CCCCN2C(=O)c2cccnc2CC(F)(F)F)nc1C(C)(C)O", ">", 10000),
    ("Cc1ccc(-n2nccn2)c(C(=O)N2CCCC[C@@H]2Cc2nc(C(C)(C)O)c(C)o2)c1", "=", 50),
    ("Cc1oc(C[C@H]2CCCCN2C(=O)c2cccnc2OCC(F)F)nc1C(C)(C)O", "=", 373),
    ("Cc1oc(C[C@H]2CCCCN2C(=O)c2ccccc2-n2ncnn2)nc1C(C)(C)O", "=", 486),
    ("CCCc1ccccc1C(=O)N1CCCC[C@@H]1Cc1nc(C(C)(C)O)c(C)o1", "=", 794),
    ("Cc1oc(C[C@H]2CCCCN2C(=O)c2ccccc2OC(F)F)nc1C(C)(C)O", "=", 1090),
    ("COc1ccc(C(=O)N2CCCC[C@@H]2Cc2nc(C(C)(C)O)c(C)o2)c(C2CC2)n1", "=", 2310),
    ("Cc1oc(C[C@H]2CCCCN2C(=O)c2ccccc2N2CCCC2)nc1C(C)(C)O", "=", 67),
]
